Collected IC50 values appear next to each entry.
Biological target: Steryl-sulfatase (Homo sapiens)
Sequence (P08842 whole entry): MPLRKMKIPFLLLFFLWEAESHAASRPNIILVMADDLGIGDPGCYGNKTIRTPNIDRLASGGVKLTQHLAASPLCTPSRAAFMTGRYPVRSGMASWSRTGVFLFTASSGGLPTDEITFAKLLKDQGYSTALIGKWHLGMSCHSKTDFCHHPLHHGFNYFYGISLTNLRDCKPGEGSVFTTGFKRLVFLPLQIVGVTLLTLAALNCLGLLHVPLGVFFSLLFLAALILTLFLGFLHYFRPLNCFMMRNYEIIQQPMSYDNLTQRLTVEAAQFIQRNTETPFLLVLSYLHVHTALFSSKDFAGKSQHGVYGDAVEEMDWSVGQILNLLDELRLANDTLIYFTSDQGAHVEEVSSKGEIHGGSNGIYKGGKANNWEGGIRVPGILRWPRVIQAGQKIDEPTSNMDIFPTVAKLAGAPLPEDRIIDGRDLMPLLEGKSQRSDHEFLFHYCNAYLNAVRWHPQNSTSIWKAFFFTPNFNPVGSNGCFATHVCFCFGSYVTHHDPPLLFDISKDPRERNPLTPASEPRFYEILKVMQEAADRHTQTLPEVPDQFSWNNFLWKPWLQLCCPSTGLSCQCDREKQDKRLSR
Assay: Inhibition of STS in human T47D cells preincubated for 1 hr followed by addition of [3H]-E1S/E1S as substrate measured after 24 hrs by HPLC based radio-detection method
Type: cell-based
Express it in nM; write the number only.

{"compound-structure": "NS(=O)(=O)Oc1ccc(-c2ccc(C(=O)c3c(F)ccc(O)c3F)s2)cc1Cl", "value-unit": "nM", "IC50": 15.6}
{"compound-structure": "NS(=O)(=O)Oc1ccc(-c2ccc(C(=O)c3c(F)ccc(O)c3F)s2)cc1F", "value-unit": "nM", "IC50": 5.1}
{"compound-structure": "NS(=O)(=O)Oc1ccc(-c2ccc(C(=O)c3c(F)ccc(O)c3F)s2)c(F)c1", "value-unit": "nM", "IC50": 2.1}

Now consider a different molecule.
Looking up NS(=O)(=O)Oc1ccc(-c2ccc(C(=O)c3c(F)ccc(O)c3F)s2)c(Cl)c1 , I found its IC50 recorded as 3.4

----------
Target: Steryl-sulfatase (Homo sapiens)
Assay: Irreversible inhibition of STS in human T47D cells preincubated for 2 hrs followed by compound washout and addition of [3H]-E1S/E1S as substrate measured after 24 hrs by HPLC based radio-detection method
Assay type: cell-based
measure-name: pIC50
For clarity, pIC50 is expressed as the negative log10 of concentration in mol/L.

Here is how some compounds turned out for pIC50.
{"compound-structure": "NS(=O)(=O)Oc1ccc(-c2ccc(C(=O)c3c(F)ccc(O)c3F)s2)cc1F", "pIC50": 8.24}
{"compound-structure": "NS(=O)(=O)Oc1ccc(-c2ccc(C(=O)c3c(F)ccc(O)c3F)s2)cc1Cl", "pIC50": 7.79}
{"compound-structure": "NS(=O)(=O)Oc1ccc(-c2ccc(C(=O)c3c(F)ccc(O)c3F)s2)c(Cl)c1", "pIC50": 8.41}

Now consider a different compound.
Looking up NS(=O)(=O)Oc1ccc(-c2ccc(C(=O)c3c(F)ccc(O)c3F)s2)c(F)c1 , I found its pIC50 recorded as 8.51

----------
Collected log10 IC50 values appear next to each entry.
Target: Steryl-sulfatase (Homo sapiens, UniProt P08842)
Experiment: Inhibition of human placental microsomal STS assessed as formation of E1 preincubated for 30 mins followed by addition of E1S as substrate measured after 20 mins by ELISA
Form field - Quantity: IC50; Unit: nM; Scale: log10

{"compound-structure": "NS(=O)(=O)Oc1ccc(-c2ccc(C(=O)c3c(F)ccc(O)c3F)s2)c(F)c1Cl", "assayed-system": "Steryl-sulfatase (Homo sapiens, UniProt P08842)", "log10 IC50": 2.39}

Looking up NS(=O)(=O)Oc1ccc(-c2ccc(C(=O)c3c(F)ccc(O)c3F)s2)cc1F , I found its log10 IC50 recorded as 1.91

Looking up NS(=O)(=O)Oc1ccc(-c2ccc(C(=O)c3c(F)ccc(O)c3F)s2)c(Cl)c1 , I found its log10 IC50 recorded as 1.29

----------
Target: 17-beta-hydroxysteroid dehydrogenase type 1 (Homo sapiens, UniProt P14061)
Sequence (P14061 whole entry): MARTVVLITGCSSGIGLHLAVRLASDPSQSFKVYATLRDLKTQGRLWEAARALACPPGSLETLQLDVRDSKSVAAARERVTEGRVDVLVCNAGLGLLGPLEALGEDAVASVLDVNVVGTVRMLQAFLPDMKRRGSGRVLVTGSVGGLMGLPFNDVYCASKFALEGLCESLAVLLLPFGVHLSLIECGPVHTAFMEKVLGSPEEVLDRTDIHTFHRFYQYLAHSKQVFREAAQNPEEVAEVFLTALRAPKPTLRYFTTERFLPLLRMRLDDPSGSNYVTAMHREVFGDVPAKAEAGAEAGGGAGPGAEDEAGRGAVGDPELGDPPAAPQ
Experiment: Inhibition of 17beta-HSD1 in human T47D cells preincubated for 1 hr followed by addition of [3H]-E1/E1 as substrate measured after 30 mins by HPLC based radio-detection method
Assay type: cell-based
Mark Fulfilled only for IC50 values smaller than 20 nM; exact matches and larger values are Not fulfilled.

Here are 3 compounds together with their reported answers.
{"compound-structure": "NS(=O)(=O)Oc1ccc(-c2ccc(C(=O)c3c(F)ccc(O)c3F)s2)cc1Cl", "category": "Not fulfilled"}
{"compound-structure": "NS(=O)(=O)Oc1ccc(-c2ccc(C(=O)c3c(F)ccc(O)c3F)s2)c(Cl)c1", "category": "Not fulfilled"}
{"compound-structure": "NS(=O)(=O)Oc1ccc(-c2ccc(C(=O)c3c(F)ccc(O)c3F)s2)c(F)c1", "category": "Not fulfilled"}

Attention now turns to another entry.
I wonder whether O=C(c1ccc(-c2ccc(O)cc2)s1)c1c(F)ccc(O)c1F has IC50 below 20 nM. Can you tell?
Fulfilled

----------
Biological target: Steryl-sulfatase (Homo sapiens)
Experiment: Inhibition of human placental microsomal STS assessed as formation of E1 preincubated for 30 mins followed by addition of E1S as substrate measured after 20 mins by ELISA
Collected IC50 values appear next to each entry.
Express it in nM; write the number only.

{"compound-structure": "NS(=O)(=O)Oc1cccc(-c2ccc(C(=O)c3c(F)ccc(O)c3F)s2)c1F", "assayed-system": "Steryl-sulfatase (Homo sapiens)", "IC50, nM": 123}
{"compound-structure": "NS(=O)(=O)Oc1ccc(-c2ccc(C(=O)c3c(F)ccc(O)c3F)s2)cc1Cl", "assayed-system": "Steryl-sulfatase (Homo sapiens)", "IC50, nM": 143}
{"compound-structure": "Cc1cc(OS(N)(=O)=O)ccc1-c1ccc(C(=O)c2c(F)ccc(O)c2F)s1", "assayed-system": "Steryl-sulfatase (Homo sapiens)", "IC50, nM": 35}
{"compound-structure": "Cc1cc(-c2ccc(C(=O)c3c(F)ccc(O)c3F)s2)ccc1OS(N)(=O)=O", "assayed-system": "Steryl-sulfatase (Homo sapiens)", "IC50, nM": 221}

Looking up NS(=O)(=O)Oc1ccc(-c2ccc(C(=O)c3c(F)ccc(O)c3F)s2)c(F)c1 , I found its IC50 recorded as 19.5

Looking up NS(=O)(=O)Oc1ccc(-c2ccc(C(=O)c3c(F)ccc(O)c3F)s2)c(F)c1F , I found its IC50 recorded as 105

# credit: ChEMBL document CHEMBL4049440
